Catalogue of TGI values
# Tested on: HCC-2998 colon
# measurement.notes: NCI tumour cell line growth inhibition, 48 h

>  <compound>
Cc1cc2nc3c(C#N)c(-c4ccccc4)/c(=C\Nc4cccc(C(F)(F)F)c4)c(=O)n3c2cc1C

>  <measurement.units>
µM

>  <censoring.sign>
>

>  <TGI>
100

$$$$
>  <compound>
CC(C)(C)[Si](C)(C)OCC1OC(n2ccc(=O)[nH]c2=O)C(O[Si](C)(C)C(C)(C)C)/C1=N/O (centres undefined)

>  <measurement.units>
µM

>  <censoring.sign>
=

>  <TGI>
14.8

$$$$
>  <compound>
CN1CCN(c2ccc3nc(-c4ccc(OCCCN5C(=O)c6cccc7cccc(c67)C5=O)cc4)[nH]c3c2)CC1

>  <measurement.units>
µM

>  <censoring.sign>
=

>  <TGI>
52.6

$$$$
>  <compound>
CCCCCCc1cc(C=O)sc1-c1ccc(-c2sc(-c3ccc(-c4ccc(-c5cc(CCCCCC)c(-c6ccc(-c7sc(C=O)cc7CCCCCC)s6)s5)s4)s3)cc2CCCCCC)s1

>  <measurement.units>
µM

>  <censoring.sign>
>

>  <TGI>
100

$$$$

* * *

# System: COLO 205 colon
# measurement.notes: NCI tumour cell line growth inhibition, 48 h
Where a SMILES comes first, the peptide text is derived from it. [ ]: non-standard residue; d: D form. The star is where a group is joined. X28 = COC1=CC(=O)N(C(=O)[C@@H](O*)C(C)C)[C@H]1Cc1ccccc1; NMeL = CN[C@@H](CC(C)C)C(=O)O; Hexanoyl = CCCCCC(=O)*; Boc = CC(C)(C)OC(=O)*; OBn = c1ccc(CO*)cc1; Bn = c1ccc(C*)cc1
# cutoff 40 µM applies to TGI; >= gives Criterion met, < gives Criterion not met

>  <compound>
COc1ccc(C2CC(c3cc(OC)c(OC)c(OC)c3)=NN2)cc1 (stereo unspecified)

>  <assigned.class>
Criterion not met

$$$$
>  <compound>
N#CC(C(=O)c1ccccc1F)c1nc2cc(C(F)(F)F)ccc2s1 (stereo unspecified)

>  <assigned.class>
Criterion met

$$$$
>  <compound>
Cc1cccc(Nc2cn(CCOc3ccccc3)c(=O)[nH]c2=O)c1

>  <assigned.class>
Criterion not met

$$$$
>  <compound>
CC(C)=NN/C(=N\S(=O)(=O)c1cc(Cl)c(Oc2ccc([N+](=O)[O-])cc2Cl)c(Cl)c1)Nc1ccc(Cl)cc1

>  <assigned.class>
Criterion met

$$$$
>  <compound>
CCCCCC(=O)N[C@H](C(=O)N[C@H](C(=O)N(C)[C@@H](CC(C)C)C(=O)N1CCC[C@H]1C(=O)N1CCC[C@H]1C(=O)O[C@H](C(=O)N1C(=O)C=C(OC)[C@@H]1Cc1ccccc1)C(C)C)C(C)C)C(C)C (Hexanoyl-VV[NMeL]PP-X28)

>  <assigned.class>
Criterion met

$$$$
>  <compound>
COc1ccc(N=NN2CCCC2)cc1

>  <assigned.class>
Criterion not met

$$$$
>  <compound>
CCCCCCCCSC1=CC(=O)C(OC)=C(OC)C1=O

>  <assigned.class>
Criterion not met

$$$$
>  <compound>
CC(C)CC(NC(=O)C(Cc1ccccc1)NC(=O)C(COCc1ccccc1)NC(=O)OC(C)(C)C)C(=O)OCc1ccccc1 (stereo not drawn) (Boc-Ser(Bn)-Phe-Leu-OBn; configuration not given here)

>  <assigned.class>
Criterion met

$$$$
>  <compound>
CCOC(=O)[C@H]1Nc2ccc(O)cc2C2c3ccccc3CC21 (stereo partly specified)

>  <assigned.class>
Criterion met

$$$$
